protocolText: in vitro
runConditions: human, uninfected MT-4 cells, CC50 (nM), same protocol as Test A, CellTiter-Glo
measurementKind: CC50 at 5 days (nM)
Just the number please, in nM, no unit attached.

[ask] Could you share which CC50 at 5 days value was measured for NC(=O)c1cc(-c2cccnc2[C@H](Cc2cc(F)cc(F)c2)NC(=O)Cn2c(=O)[nH]c3cc(Cl)c(Cl)cc32)ccc1F ?
[reply] 12000

[ask] Could you share which CC50 at 5 days value was measured for NC(=O)c1cc(-c2cccnc2[C@H](Cc2cc(F)cc(F)c2)NC(=O)Cn2cc(C3=CCCC3)c(C(F)(F)F)n2)ccc1F ?
[reply] 9460

***
[ask] Could you share which CC50 at 5 days value was measured for CC(C)(C)OC(=O)N1CCC[C@H]1C(=O)N[C@@H](Cc1cc(F)cc(F)c1)c1ncccc1-c1ccc(F)c(C(N)=O)c1 ?
[reply] 11900
